Field: IC50. Provide a value for each of the molecules that follow.
- Tested on: NCM460
- EXPERIMENT DESCRIPTION: Cytotoxicity against human NCM460 cells harboring wild-type KRAS assessed as cell growth inhibition incubated for 24 hrs by MTT assay
- Type: functional, cell-based
- MEASUREMENT PARAMETERS: NCM460, 24 h

What does the data say about its IC50? Entry: C=CC(=O)N1CCN(c2nc(=O)n(-c3c(C)ccnc3C(C)C)c3nc(-c4c(O)cccc4F)c(F)cc23)[C@@H](C)C1 [SOTORASIB]
> 40 µM

Repeat for the following molecule: "CCN(CC)c1ccc2cc(/C=C/c3ccc4cc(F)c(N5CCN(Cc6cn(CCc7cccs7)nn6)CC5)cc4[n+]3C)c(=O)oc2c1"
> 40 µM

Repeat for the following molecule: "CCN(CC)c1ccc2cc(/C=C/c3cc(N4CCN(C)CC4)c4cc(F)c(NCc5cn(CCCN(C)C)nn5)cc4[n+]3C)c(=O)oc2c1"
> 40 µM

Repeat for the following molecule: "CCN(CC)c1ccc2cc(/C=C/c3cc(N4CCN(C)CC4)c4cc(F)c(NCc5cn(CCCN6CCOCC6)nn5)cc4[n+]3C)c(=O)oc2c1"
> 40 µM

Repeat for the following molecule: "CCN(CC)CCCn1cc(CNc2cc3c(cc2F)c(N2CCN(C)CC2)cc(/C=C/c2cc4ccc(N(CC)CC)cc4oc2=O)[n+]3C)nn1"
> 40 µM

Repeat for the following molecule: "CCN(CC)c1ccc2cc(/C=C/c3ccc4cc(F)c(Nc5ccc6nc(C)[nH]c6c5)cc4[n+]3C)c(=O)oc2c1"
14.8 µM

Repeat for the following molecule: "CCN(CC)c1ccc2cc(/C=C/c3ccc4cc(F)c(NCc5ccccc5C(F)(F)F)cc4[n+]3C)c(=O)oc2c1"
12.2 µM

###

- Test system: U-87 MG
- EXPERIMENT DESCRIPTION: Cytotoxicity against human U-87 MG cells harboring wild-type KRAS assessed as cell growth inhibition incubated for 24 hrs by MTT assay
- Format: functional, cell-based, U-87MG ATCC
QUANTITY MEASURED: IC50

What does the data say about its IC50? Entry: "CCN(CC)c1ccc2cc(/C=C/c3ccc4cc(F)c(N5CCN(C)CC5)cc4[n+]3C)c(=O)oc2c1"
> 40 µM

Repeat for the following compound: "CCN(CC)c1ccc2cc(/C=C/c3ccc4cc(F)c(NCCN5CCCC5)cc4[n+]3C)c(=O)oc2c1.[I-]"
> 40 µM
